Molecular target: T1, human CDH3 (P-cadherin) on cells (human, UniProt P22223 108-829)
T1 construct: The entry includes signal peptide and pro-peptide; extracellular domain D1 starts at aa 108; also called hu CDH3; hu CDH-3
T1 sequence (P22223 108-829 limits assumed): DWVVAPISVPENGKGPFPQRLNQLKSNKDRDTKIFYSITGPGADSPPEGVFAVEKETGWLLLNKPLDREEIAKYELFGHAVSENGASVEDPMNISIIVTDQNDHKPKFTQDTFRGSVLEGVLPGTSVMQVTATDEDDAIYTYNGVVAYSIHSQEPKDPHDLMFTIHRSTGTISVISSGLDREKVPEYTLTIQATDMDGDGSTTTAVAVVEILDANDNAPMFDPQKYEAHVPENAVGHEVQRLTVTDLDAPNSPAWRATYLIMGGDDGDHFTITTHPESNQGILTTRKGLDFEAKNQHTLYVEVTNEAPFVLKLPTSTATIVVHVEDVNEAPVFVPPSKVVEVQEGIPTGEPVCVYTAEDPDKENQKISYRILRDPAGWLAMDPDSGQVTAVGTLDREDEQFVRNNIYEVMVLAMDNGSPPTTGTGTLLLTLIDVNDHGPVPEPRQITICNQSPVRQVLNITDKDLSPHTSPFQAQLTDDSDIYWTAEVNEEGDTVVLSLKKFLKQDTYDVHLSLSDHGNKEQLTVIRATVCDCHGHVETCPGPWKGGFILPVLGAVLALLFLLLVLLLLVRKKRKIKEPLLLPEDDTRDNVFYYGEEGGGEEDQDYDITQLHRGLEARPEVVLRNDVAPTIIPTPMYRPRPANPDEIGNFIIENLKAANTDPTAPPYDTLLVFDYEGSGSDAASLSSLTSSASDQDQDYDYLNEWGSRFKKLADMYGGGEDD
Experiment: flow cytometry, transfected CHO cells; crude undiluted periplasmic scFv extract; anti-FLAG M2 + anti-mouse IgG Fcγ-PE; control PBS/2% FCS
measure: binding result

CDH3-6 scFv (scFv) scFv: EVQLVEESGPELVKPGASVKISCKASGYAFSSSWMNWVKQRPGKGLEWIGRIYPGDGETKYNGKFKGKATLTADKSSSTAYMQLSSLTSEDSAVYFCARQRDYGALYAMDYWGQGTSVTVSSGGGGSGGGGSGGGGSELVMTQSPASLSASVGETVTITCRASDDIYSYLAWYQQKQGKSPQLLVYNAKTLAEGVPSRFSGSGSGTQFSLKINSLQPEDFGTYYCQNHYVTPFTFGAGTKLEIK ... binds
CDH3-5 (scFv, Used as crude periplasmic extract and detected through a FLAG tag; also called CDH3-5 scFv) scFv: EVQLVEQSGAELVKPGASVKISCKASGYAFSTSWMNWVKQRPGKGLEWIGRIYPGDGETKYNGKFKGKATLTADKSSSTAYMQLSSLTSEDSAVYFCARQRDYGALYALDYWGQGTRVTVSSGGGGSGGGGSGGGGSELMMTQTPASLSASVGETVTFTCRASENIYSYLAWYQQKQGKSPQLLVYNAKTLAEGVPSRFSGSGSGTQFSLKINSLQPEDFGSYYCQHHYVPPYTFGGGTKLEIK ... binds
CDH3-10 scFv (scFv) scFv: EVQLVEESGGGLVKPGGSLKLSCAASGFTFSSYAMSWVRQTPDKRLEWVATISSGGHYTYYPDSVKGRFTISRDNAKNTLYLQMSSLKSEDTAMYYCASYYYGIPFGYWGQGTTVTVSSGGGGSGGGGSGGGGSELVMTQSPSSLSASLGEGVSLTCRASQDIGINLIWLRQEPDGTIKRLIYDTSSLDSGVPKRFSGSRSGSDYSLTISSLESEDFVHYYCLQYGSSPLTFGAGTKLEIK ... binds
